- study-system: GST-Co-NF-kB (Capsaspora owczarzaki, UniProt F1ARL5 200-546)
- Sequence: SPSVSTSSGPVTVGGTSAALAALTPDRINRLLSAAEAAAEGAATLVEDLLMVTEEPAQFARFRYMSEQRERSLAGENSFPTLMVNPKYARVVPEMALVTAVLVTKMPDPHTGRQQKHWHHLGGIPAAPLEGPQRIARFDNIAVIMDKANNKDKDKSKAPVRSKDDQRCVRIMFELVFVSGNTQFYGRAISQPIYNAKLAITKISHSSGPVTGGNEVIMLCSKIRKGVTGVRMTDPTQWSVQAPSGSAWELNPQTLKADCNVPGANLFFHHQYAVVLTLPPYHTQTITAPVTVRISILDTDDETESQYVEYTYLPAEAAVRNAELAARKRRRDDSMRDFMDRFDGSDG
- procedure-details: protein-binding microarray (PBM); PBM: ~300 nM protein, 6 mM HEPES pH 7.8, 80 mM KCl, 0.5 mM EDTA, 0.5 mM EGTA, 6% glycerol, 35 ng/ul poly-dIdC, 1% milk, 1 h, room temperature; high values mean tight binding
- experimental-setup: dsDNA, one strand shown
property: binding signal (z-score)

record_sequence=CCGATTAACATCACCCAAAGTTTTGATGTTAATCGGGTCTTGATTCGCTTGACGCTGCTG unit_abbrev=z-score quantitative_result=1.24
record_sequence=CCGATTAACATCAACCTTTCCCCTGATGTTAATCGGGTCTTGATTCGCTTGACGCTGCTG unit_abbrev=z-score quantitative_result=6.19
record_sequence=CCGATTAACATCAAAATTTTTCCTGATGTTAATCGGGTCTTGATTCGCTTGACGCTGCTG unit_abbrev=z-score quantitative_result=1.06
record_sequence=CCGATTAACATCACTGTTTCCCCTGATGTTAATCGGGTCTTGATTCGCTTGACGCTGCTG unit_abbrev=z-score quantitative_result=7.92
record_sequence=CCGATTAACATCAGGATATCCCCTGATGTTAATCGGGTCTTGATTCGCTTGACGCTGCTG unit_abbrev=z-score quantitative_result=3.66
record_sequence=CCGATTAACATCACCAACCCCCCTGATGTTAATCGGGTCTTGATTCGCTTGACGCTGCTG unit_abbrev=z-score quantitative_result=3.02
record_sequence=CCGATTAACATCACAAATTTTCCTGATGTTAATCGGGTCTTGATTCGCTTGACGCTGCTG unit_abbrev=z-score quantitative_result=1.2
record_sequence=CCGATTAACATCAATGCACCCCCTGATGTTAATCGGGTCTTGATTCGCTTGACGCTGCTG unit_abbrev=z-score quantitative_result=3.47
record_sequence=CCGATTAACATCAGAAAACCCCCTGATGTTAATCGGGTCTTGATTCGCTTGACGCTGCTG unit_abbrev=z-score quantitative_result=4.05

====

- study-system: GST-Co-NF-kB (Capsaspora owczarzaki, UniProt F1ARL5 200-546)
- Sequence: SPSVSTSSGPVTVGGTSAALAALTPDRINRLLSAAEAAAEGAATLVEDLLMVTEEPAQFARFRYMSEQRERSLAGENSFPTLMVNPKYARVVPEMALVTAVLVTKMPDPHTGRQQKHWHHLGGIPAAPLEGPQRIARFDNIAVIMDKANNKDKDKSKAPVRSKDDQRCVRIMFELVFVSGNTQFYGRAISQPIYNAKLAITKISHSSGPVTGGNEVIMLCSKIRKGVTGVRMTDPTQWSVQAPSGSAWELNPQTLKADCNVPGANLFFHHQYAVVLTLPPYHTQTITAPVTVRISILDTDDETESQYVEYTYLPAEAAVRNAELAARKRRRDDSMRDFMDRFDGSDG
- procedure-details: protein-binding microarray (PBM); PBM: ~300 nM protein, 6 mM HEPES pH 7.8, 80 mM KCl, 0.5 mM EDTA, 0.5 mM EGTA, 6% glycerol, 35 ng/ul poly-dIdC, 1% milk, 1 h, room temperature; Ap Aiptasia and Nv Nematostella (sea anemones) / Co Capsaspora / Aq Amphimedon (sponge) / Dm Drosophila / Hu human; RHD is the Rel homology domain; high values mean tight binding
- experimental-setup: dsDNA, one strand shown
property: binding signal

record_sequence=CCGATTAACATCAGGGGGTGTTATGATGTTAATCGGGTCTTGATTCGCTTGACGCTGCTG property="binding signal" result="3.42 z-score"
record_sequence=CCGATTAACATCAGAATTTCCCCTGATGTTAATCGGGTCTTGATTCGCTTGACGCTGCTG property="binding signal" result="8.73 z-score"
record_sequence=CCGATTAACATCAGAATATTCCCTGATGTTAATCGGGTCTTGATTCGCTTGACGCTGCTG property="binding signal" result="3.41 z-score"
record_sequence=CCGATTAACATCAAAGGTCCCCCTGATGTTAATCGGGTCTTGATTCGCTTGACGCTGCTG property="binding signal" result="4.7 z-score"
record_sequence=CCGATTAACATCAAGGGGGGTGCTGATGTTAATCGGGTCTTGATTCGCTTGACGCTGCTG property="binding signal" result="3.26 z-score"
record_sequence=CCGATTAACATCAGGTAATTTACTGATGTTAATCGGGTCTTGATTCGCTTGACGCTGCTG property="binding signal" result="1.89 z-score"
record_sequence=CCGATTAACATCAGACCCCCCCCTGATGTTAATCGGGTCTTGATTCGCTTGACGCTGCTG property="binding signal" result="4.59 z-score"
record_sequence=CCGATTAACATCAAATTTCCCCGTGATGTTAATCGGGTCTTGATTCGCTTGACGCTGCTG property="binding signal" result="9.87 z-score"
record_sequence=CCGATTAACATCAGAAAAATCCCTGATGTTAATCGGGTCTTGATTCGCTTGACGCTGCTG property="binding signal" result="2.27 z-score"
record_sequence=CCGATTAACATCAGGGGGCGGGATGATGTTAATCGGGTCTTGATTCGCTTGACGCTGCTG property="binding signal" result="2.28 z-score"
record_sequence=CCGATTAACATCAGGTTTTCCCATGATGTTAATCGGGTCTTGATTCGCTTGACGCTGCTG property="binding signal" result="4.33 z-score"
record_sequence=CCGATTAACATCACATTGTCCCCTGATGTTAATCGGGTCTTGATTCGCTTGACGCTGCTG property="binding signal" result="4.12 z-score"
record_sequence=CCGATTAACATCAAACATCCCCCTGATGTTAATCGGGTCTTGATTCGCTTGACGCTGCTG property="binding signal" result="5.97 z-score"
record_sequence=CCGATTAACATCACGGGATTTCCTGATGTTAATCGGGTCTTGATTCGCTTGACGCTGCTG property="binding signal" result="1.37 z-score"
record_sequence=CCGATTAACATCAGGGGAGTAAATGATGTTAATCGGGTCTTGATTCGCTTGACGCTGCTG property="binding signal" result="4.51 z-score"
record_sequence=CCGATTAACATCAGGACAACCCCTGATGTTAATCGGGTCTTGATTCGCTTGACGCTGCTG property="binding signal" result="1.02 z-score"
record_sequence=CCGATTAACATCAGGGGGGGGCATGATGTTAATCGGGTCTTGATTCGCTTGACGCTGCTG property="binding signal" result="4.65 z-score"
record_sequence=CCGATTAACATCAAGGGGGGGATTGATGTTAATCGGGTCTTGATTCGCTTGACGCTGCTG property="binding signal" result="4.35 z-score"
